tested on: Wnt5a (protein binding on small-molecule microarray); test: Wnt5a binders on small-molecule microarray, primary screen, biophysical, 635/667 nm fluorescence (AID 1142); conditions: 635 nm fluorescence, higher = more signal;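 also: fluorescence read at 667 nm with signal to noise per printed feature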
Is composite z-score at least -0.07? Then 1.0. If not, 0.0.

Would you please look over these solved cases?
{"columns": ["COMPOUND", "LABEL"],
 "data": [
  ["C=CC(CO)NC(=O)OCC1c2ccccc2-c2ccccc21 (configuration not stated)", 1.0],
  ["O=C1NC(=O)C2C1C=CC(C(O)c1ccc(F)cc1)N2Nc1ccccn1 (configuration not stated)", 0.0],
  ["CN(C)C(=O)[C@]1(Cc2ccccc2CN=[N+]=[N-])N=C(c2ccc(OCCCO)cc2)O[C@@H]1c1ccccc1N=[N+]=[N-]", 1.0],
  ["C=CCC(OC(C)=O)[C@@H]1[C@@H](N(Cc2ccc(-c3cccc(C(F)(F)F)c3)o2)C(=O)Cc2ccc(OC)cc2)c2cc(OCCCO)ccc2N1C(=O)c1ccc2ccccc2n1 (some centres not stated)", 0.0],
  ["O=C1c2ccccc2[C@@]2(Cc3ccccc3N(Cc3ccccc3)C2=O)[C@H](c2ccc(CO)cc2)N1Cc1ccccc1", 0.0]
]}

Check the entry C=CCC(OC(C)=O)[C@@H]1[C@@H](N(Cc2ccc(-c3cccc(C(F)(F)F)c3)o2)C(=O)c2cccc3ccccc23)c2cc(OCCCO)ccc2N1C(=O)c1ccc2ccccc2c1 (some centres not stated) : does composite z-score equal or exceed -0.07?
0.0

Check the entry COC(=O)[C@@]1(Cc2ccc(OC)cc2)[C@H]2c3cc(C(=O)N4CCCC4)n(CCc4ccc(OC)c(Br)c4)c3C[C@H]2CN1C(=O)c1ccccc1 : does composite z-score equal or exceed -0.07?
0.0
